Assay: Half life in rat
Format: ADME, organism-based
Settings: in vivo

COMPOUND	half-life
O=C(N[C@@H]1C2CCN(CC2)[C@H]1Cc1cccnc1)c1cc2ccccc2o1 [BRADANICLINE]	2 h

---

Assay: Drug degradation in human hepatocytes at 4 hrs
Format: ADME, cell-based, Hepatocyte
Details: read-out: Drug degradation
EXPERIMENTAL READOUT: metabolised at 4 h (%)

1) O=C(N[C@@H]1C2CCN(CC2)[C@H]1Cc1cccnc1)c1cc2ccccc2o1 27

---

Assay: Ratio of drug level in brain to plasma in rat measured 6 hrs post dose
Assay type: ADME
Details: brain and plasma, read-out: BPR
EXPERIMENTAL READOUT: Kp at 6 h

1) O=C(N[C@@H]1C2CCN(CC2)[C@H]1Cc1cccnc1)c1cc2ccccc2o1 0.4

---

Experiment: Drug degradation in human liver microsomes at 60 mins
Type: ADME, Microsome
Details: read-out: Drug degradation
EXPERIMENTAL READOUT: metabolised at 1 h

1) O=C(N[C@@H]1C2CCN(CC2)[C@H]1Cc1cccnc1)c1cc2ccccc2o1 < 25%

---

Assay: Oral bioavailability in rat
Type: ADME, organism-based
Settings: in vivo
EXPERIMENTAL READOUT: bioavailability (%)

1) O=C(N[C@@H]1C2CCN(CC2)[C@H]1Cc1cccnc1)c1cc2ccccc2o1 20
